# ASSAY: NCI Yeast Anticancer Drug Screen. Data for the mec2-1 strain (AID 157)
# EXPERIMENTAL_PARAMETERS: S. cerevisiae mec2-1 strain, at 50.0 µM, hits give high values
About 79,000 compounds went through this panel and 15% of them were active in at least one assay; those are over-represented in the sample as a whole.
METRIC_NAME: growth inhibition (%)
Numbers only here, please. The scale is %.

COMPOUND	VALUE_UNIT	NUMBER
Nc1cc(S(=O)(=O)F)cc(Cl)c1O	%	-3.55
CC(C)N1C(=O)NC(=O)C2(CCCC2)C1=O	%	3.05
CS(=O)(=O)NC(=O)CBr	%	-23.6
CC1=C(C)C(=O)O[C@@H]([C@](C)(O)[C@]2(O)CC[C@@]3(O)[C@@H]4C[C@H]5O[C@]56CC=CC(=O)[C@]6(C)[C@H]4CC[C@]23C)C1	%	64.7
CC1=C2[C@H]3OC(=O)[C@@H](C)[C@@H]3CC[C@@]2(C)C=CC1=O	%	5.9

Let us move to another entry and its growth inhibition.
Query: Using known records, supply growth inhibition for O=[N+]([O-])c1cc(Br)c(O)c(Br)c1
Reply: 18.8
